Assay: blockers of DNA damage checkpoint Chk1 activation – imaging, HeLa, hydroxyurea, phospho-Chk1 antibody, percent positive cells, primary screen (AID 1186)
Details: hydroxyurea-induced phospho-Chk1 immunofluorescence imaging, higher = more signal
Assignment: determine reported z-score for the given compounds.
Write the value as a bare number.

Q. GET /values?readout=z-score&item= CN(C)CCCCCCNC(=O)[C@@H]1C[C@@H]2C(=O)N[C@@H](Cc3ccccc3)C(=O)N2[C@@H]1c1cccc(OCCO)c1
A. 0.0258

Q. Request the reported z-score associated with Cc1ccc(S[C@]2(C(=O)NCCCN(C)C)CC(=O)N(Cc3ccccc3)[C@@H]2c2ccc(CO)cc2)cc1
A. 0.327

Q. Which z-score reading was recorded for the compound COC(=O)[C@@]1(Cc2ccc(F)cc2)[C@H]2c3cc(C(=O)N4CCCC4)n(CCc4ccc(OC)c(Br)c4)c3C[C@H]2CN1C(=O)c1ccccc1 ?
A. -1.03

Q. For the compound C=CCC(OC(C)=O)[C@@H]1[C@@H](N(Cc2cc3ccccc3o2)C(=O)c2cccc3ccccc23)c2cc(OCCCO)ccc2N1C(=O)Cc1ccc2ccccc2c1 (some centres not stated) , what z-score is on record?
A. -0.394

Q. Dear colleague, I am looking for the recorded z-score of the following compound: NC(=O)NCC#Cc1ccc2c(c1)[C@]1(C(=O)N2)[C@H](C(=O)NC[C@H](O)c2ccccc2)[C@H]2C(=O)O[C@H](c3ccccc3)[C@H](c3ccccc3)N2[C@@H]1c1ccccc1OCCO
A. -0.228

Q. Requested read-out: z-score. Entry: Cc1ccc(S[C@]2(C(=O)NCCCN(C)C)CC(=O)N(C(C)C)[C@@H]2c2ccc(CO)cc2I)cc1
A. 0.535

Q. For the compound shown here, Cc1ccccc1/C=C/C=O , give the reported z-score.
A. 0.133

====

Experiment: probe aInhba binding on compound microarray – biochemical, small-molecule microarray, 635/667 nm fluorescence, primary screen (AID 1148);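 further: score merges 667nm spot fluorescence with signal-to-noise for antibody binding to printed compounds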
Settings: higher = more signal
readout_name: composite z-score
Reply with just the number.

Q. I would be grateful if you could share the reported composite z-score for CCCCC(=C=CC[C@H](O)c1ccccc1OCCO)C[C@H](O)c1cc(Cl)cc(Cl)c1O .
A. -0.0471

Q. Endpoint output: composite z-score of C=C(CCCC)/C(=C/C[C@@H](OC(=O)c1ccncc1)c1ccc(CO)o1)c1cc(C(=O)OC)ccc1OC . Value?
A. 0.027

Q. Name the recorded composite z-score for CC(=O)NCCCC[C@@H]1NC(=O)[C@@H]2C[C@H](C(=O)NCc3ccc(F)cc3)[C@H](c3ccc(O)cc3)N2C1=O .
A. -0.176

Q. Dear colleague, I am looking for the recorded composite z-score of the following compound: COC(=O)C(CC#Cc1ccc2c(c1)[C@]1(C(=O)N2)[C@H](C(=O)N2CCCCCCC2)[C@H]2C(=O)O[C@H](c3ccccc3)[C@H](c3ccccc3)N2[C@@H]1c1ccccc1OCCO)C(=O)OC
A. 2.24

====

Provide the recorded composite z-score for the entries that follow.
Experiment: binders from COS7 lysate, DM2A8 probe, primary screen, torsin A project, cell lysate, small-molecule microarray, fluorescence 635/667 (AID 1065)
Details: higher = more signal, COS7 lysate expressing mutant human TOR1A

Q. Recorded composite z-score for CS(=O)(=O)CCOC(=O)C1=CC(c2ccc(CO)cc2)=CC(c2cccs2)N(Cc2cccc(OC(F)(F)F)c2)C=C1C(=O)OCCS(C)(=O)=O (stereo not given) , please?
A. 0.405

Q. Using the record for O=C1C2C=CC(C(O)c3ccc(B(O)O)cc3)N(Nc3ccc([N+](=O)[O-])cc3)C2C(=O)N1c1ccccc1 (stereo not given) , report its composite z-score.
A. 0.378

Q. Given the compound [N-]=[N+]=NCc1ccccc1[C@H]1OC(c2ccc(OCCCO)cc2)=N[C@@]1(Cc1ccccc1)C(=O)O , what is its reported composite z-score?
A. 0.325

Q. What does the record list as composite z-score for CC[C@@H]1C=C(C(=O)O)[C@H](c2ccc(C(C)C)cc2)N1S(=O)(=O)c1ccc(C)cc1 ?
A. 1.41

Q. Suppose we examine the compound O=C1OCC=C[C@H]2OC34C=CCN(c5ccc6ccccc6c5)C(=O)[C@H]3N(CCO)C(=O)[C@@H]4[C@@H]12 (stereo not given in full) ; what composite z-score value has been reported?
A. -2.22

Q. Quick one: composite z-score of Cc1ccc(S(=O)(=O)N2CC(C(=O)O)=CCC2c2ccccc2)cc1 (stereo not given) ?
A. -0.0007

Q. Fill in the blank: the reported composite z-score of COCCn1c(C(=O)N(C)C)cc2c1C[C@H]1CN(C(=O)c3ccccc3)[C@@](Cc3ccc(F)cc3)(C(=O)OC)[C@@H]21 is ____.
A. -0.0248

Q. So what does the record say about composite z-score for Cc1ccc(S[C@]2(C(=O)NCCN3CCOCC3)CC(=O)N(C3CCCCC3)[C@@H]2c2ccc(CO)cc2)cc1 ?
A. -0.439

Q. Name the reported composite z-score value associated with the compound [N-]=[N+]=Nc1ccccc1C[C@]1(C(=O)N2CCCCC2)N=C(c2ccc(OCCCO)cc2)O[C@H]1c1ccccc1N=[N+]=[N-]
A. -0.155

Q. Sample CCCCC(=C=CC[C@H](O)c1ccccc1OCCO)C[C@H](O)c1cc(Cl)cc(Cl)c1O — what was its composite z-score?
A. -0.257

Q. # composite z-score lookup, item CC1CC/C=C\[C@H]2OC34C=CCN(c5ccc6ccccc6c5)C(=O)[C@H]3N(CCCCCO)C(=O)[C@@H]4C2C(=O)O1 (stereo not given in full)
A. -0.0205

Q. Which composite z-score is listed for COc1ccc(C(=O)Nc2cccc(CN3C(=O)[C@@]4(O[C@@H](CC(=O)N5Cc6ccccc6C[C@H]5CO)[C@H]([Si](C)(C)c5ccc(OC)cc5)[C@H]4C)c4ccccc43)c2)cc1 ?
A. 1.09

Q. Consider the compound C=CCC(OC(C)=O)[C@@H]1[C@@H](N(Cc2cc3ccccc3o2)C(=O)c2ccc(-c3ccccc3)cc2)c2cc(OCCCO)ccc2N1C(=O)Cc1ccc2ccccc2c1 (stereo not given in full) and give its measured composite z-score.
A. -0.499

Q. Report composite z-score for C=C(CCCC)C(=O)CC[C@@H](OC(=O)c1ccccc1-c1ccccc1C(=O)O)c1ccc(CO)o1 please.
A. -0.141

Q. Using the record for CCOC(=O)C1=C[C@@H](C(C)(C)C)N(S(=O)(=O)c2ccc(C)cc2)[C@H]1c1ccc(Cl)c(Cl)c1 , report its composite z-score.
A. 0.134
